System: Hodgkin's lymphoma cells (L540cy)
Test: In vitro cytotoxicity, CellTiter-Glo 96 h, L540cy
Conditions: read-out: Cytotoxic potency (IC50 class), L540cy
Collected IC50 values appear next to each entry.

# compound, IC50
measured = [
    ("CCc1c2c(nc3cc4c(cc13)OCO4)-c1cc3c(c(=O)n1C2)COC(=O)[C@]3(O)CC [Compound 6e]", "0.1 to 1 nM"),
    ("CC[C@@]1(O)C(=O)OCc2c1cc1n(c2=O)Cc2c-1nc1cc3c(cc1c2C(C)C)OCO3 [Compound 6c]", "1 to 10 nM"),
    ("CC[C@@]1(O)C(=O)OCc2c1cc1n(c2=O)Cc2c-1nc1cc3c(cc1c2CNC(=O)CCN)OCO3 [Compound 4d]", "100 to 1000 nM"),
    ("CC[C@@]1(O)C(=O)OCc2c1cc1n(c2=O)Cc2c-1nc1cc3c(cc1c2CN1CCOCC1)OCO3 [Compound 5g]", "1 to 10 nM"),
    ("CC[C@@]1(O)C(=O)OCc2c1cc1n(c2=O)Cc2c-1nc1cc3c(cc1c2CN(C)CCNC)OCO3 [Compound 5x]", "10 to 100 nM"),
    ("CC[C@@]1(O)C(=O)OCc2c1cc1n(c2=O)Cc2c-1nc1cc3c(cc1c2CC(C)C)OCO3 [Compound 6f]", "1 to 10 nM"),
    ("CC[C@@]1(O)C(=O)OCc2c1cc1n(c2=O)Cc2c-1nc1cc3c(cc1c2CNCCOCCOCCN)OCO3 [Compound 5y]", "1 to 10 nM"),
    ("CC[C@@]1(O)C(=O)OCc2c1cc1n(c2=O)Cc2c-1nc1cc3c(cc1c2CNCCC(c1ccccc1)c1ccccc1)OCO3 [Compound 5o]", "1 to 10 nM"),
    ("CC[C@@]1(O)C(=O)OCc2c1cc1n(c2=O)Cc2c-1nc1cc(F)c(C)c3c1c2[C@@H](NC(=O)CO)CC3 [Compound 8a]", "1 to 10 nM"),
    ("CCCc1c2c(nc3cc4c(cc13)OCO4)-c1cc3c(c(=O)n1C2)COC(=O)[C@]3(O)CC [Compound 6a]", "0.1 to 1 nM"),
    ("CCCCCc1c2c(nc3cc4c(cc13)OCO4)-c1cc3c(c(=O)n1C2)COC(=O)[C@]3(O)CC [Compound 6h]", "1 to 10 nM"),
    ("CC[C@@]1(O)C(=O)OCc2c1cc1n(c2=O)Cc2c-1nc1cc3c(cc1c2-c1ccc(F)cc1)OCO3 [Compound 6]", "0.1 to 1 nM"),
    ("CC[C@@]1(O)C(=O)OCc2c1cc1n(c2=O)Cc2c-1nc1cc3c(cc1c2CNC)OCO3 [Compound 5]", "1 to 10 nM"),
    ("CC[C@@]1(O)C(=O)OCc2c1cc1n(c2=O)Cc2c-1nc1cc3c(cc1c2CNCCNC(C)C)OCO3 [Compound 5m]", "10 to 100 nM"),
    ("CC[C@@]1(O)C(=O)OCc2c1cc1n(c2=O)Cc2c-1nc1cc3c(cc1c2CNCC(C)C)OCO3 [Compound 5i]", "1 to 10 nM"),
    ("CC[C@@]1(O)C(=O)OCc2c1cc1n(c2=O)Cc2c-1nc1cc3c(cc1c2CNCCCCO)OCO3 [Compound 5f]", "1 to 10 nM"),
    ("CC[C@@]1(O)C(=O)OCc2c1cc1n(c2=O)Cc2c-1nc1cc3c(cc1c2CNCc1ccccc1)OCO3 [Compound 5j]", "1 to 10 nM"),
    ("CC[C@@]1(O)C(=O)OCc2c1cc1n(c2=O)Cc2c-1nc1cc3c(cc1c2CN(CCO)CCO)OCO3 [Compound 5p]", "10 to 100 nM"),
    ("CC[C@@]1(O)C(=O)OCc2c1cc1n(c2=O)Cc2c-1nc1cc3c(cc1c2CC(C)(C)C)OCO3 [Compound 6n]", "1 to 10 nM"),
]
